Where these numbers come from: patent US12655169B2

Assay: Flowability test (particle and powder characteristic analyzer, FT-102D)
Assay type: physicochemical
property label: Hausner ratio

The molecule listed as O=C[C@H](O)[C@@H](O)[C@@H](O)CO [Example 11, L-arabinose] has a reported Hausner ratio of 1.3

The molecule listed as O=C[C@H](O)[C@@H](O)[C@@H](O)CO [Example 12, L-arabinose] has a reported Hausner ratio of 1.3

The molecule listed as O=C[C@H](O)[C@@H](O)[C@@H](O)CO [Example 2, L-arabinose] has a reported Hausner ratio of 1.3

The molecule listed as O[C@@H]1[C@@H](O)[C@@H](O)CO[C@H]1O [Commercial product (T1)] has a reported Hausner ratio of 1.7

The molecule listed as O=C[C@H](O)[C@@H](O)[C@@H](O)CO [Example 10 batch 1, L-arabinose] has a reported Hausner ratio of 1.2

The molecule listed as O[C@@H]1[C@@H](O)[C@@H](O)OC[C@@H]1O [Example 1, β-L-(+)-arabinose] has a reported Hausner ratio of 1.2

The molecule listed as O=C[C@H](O)[C@@H](O)[C@@H](O)CO [Example 10 batch 2, L-arabinose] has a reported Hausner ratio of 1.2

The molecule listed as O[C@@H]1[C@@H](O)[C@@H](O)CO[C@H]1O [Commercial product (Y1)] has a reported Hausner ratio of 1.7

The molecule listed as O=C[C@H](O)[C@@H](O)[C@@H](O)CO [Example 3, L-arabinose] has a reported Hausner ratio of 1.2
